Species on record: Rattus norvegicus
Assay: Relative bioavailability of prodrugs in rat
Type: ADME, organism-based
Details: in vivo
endpoint.name: Relative F%

[
  {
    "molecule": "CC(=O)OC(C)O/C(=C1/C(=O)N(C(N)=O)c2cc(Cl)c(F)cc21)c1cccs1 (stereo not drawn)",
    "endpoint.name": "Relative F%",
    "result.number": 2.3
  },
  {
    "molecule": "COC(C)C(=O)OCO/C(=C1/C(=O)N(C(N)=O)c2cc(Cl)c(F)cc21)c1cccs1 (stereo not drawn)",
    "endpoint.name": "Relative F%",
    "result.number": 45
  },
  {
    "molecule": "O=C(c1cccs1)c1c2cc(F)c(Cl)cc2n2c(=O)[nH]c(=O)oc12",
    "endpoint.name": "Relative F%",
    "result.number": 25
  },
  {
    "molecule": "CCOC(=O)O/C(=C1\\C(=O)N(C(N)=O)c2cc(Cl)c(F)cc21)c1cccs1",
    "endpoint.name": "Relative F%",
    "result.number": 3.5
  },
  {
    "molecule": "CC(C)C(N)C(=O)OCO/C(=C1/C(=O)N(C(N)=O)c2cc(Cl)c(F)cc21)c1cccs1.Cc1ccc(S(=O)(=O)O)cc1 (stereo not drawn)",
    "endpoint.name": "Relative F%",
    "result.number": 27
  },
  {
    "molecule": "COCC(=O)OC(C)O/C(=C1/C(=O)N(C(N)=O)c2cc(Cl)c(F)cc21)c1cccs1 (stereo not drawn)",
    "endpoint.name": "Relative F%",
    "result.number": 47
  },
  {
    "molecule": "CC(C)CC(N)C(=O)OCO/C(=C1/C(=O)N(C(N)=O)c2cc(Cl)c(F)cc21)c1cccs1.Cc1ccc(S(=O)(=O)O)cc1 (stereo not drawn)",
    "endpoint.name": "Relative F%",
    "result.number": 81
  },
  {
    "molecule": "CC(C)OC(=O)O/C(=C1/C(=O)N(C(N)=O)c2cc(Cl)c(F)cc21)c1cccs1 (stereo in doubt; 32)",
    "endpoint.name": "Relative F%",
    "result.number": 0.6
  }
]

a: CC(C)OC(=O)O/C(=C1/C(=O)N(C(N)=O)c2cc(Cl)c(F)cc21)c1cccs1 (stereo in doubt; 33)
b: CC(C)(C)C(=O)OCO/C(=C1/C(=O)N(C(N)=O)c2cc(Cl)c(F)cc21)c1cccs1
c: CC(C)(C)C(=O)O/C(=C1\C(=O)N(C(N)=O)c2cc(Cl)c(F)cc21)c1cccs1
Query: # sort list by recorded Relative F%, greatest to least Present the labels in the sequence the task asks for.
Reply: a, c, b

A: CC(C)(C)OC(=O)NCC(=O)OCO/C(=C1/C(=O)N(C(N)=O)c2cc(Cl)c(F)cc21)c1cccs1
B: CCOC(=O)/C=C/C(=O)O/C(=C1/C(=O)N(C(N)=O)c2cc(Cl)c(F)cc21)c1cccs1
Query: Between the entries labeled A and B , whose measured Relative F% is lower? Write down the label of the entry you select.
Reply: A
(A: 0, B: 21)

I: NC(=O)N1C(=O)/C(=C(\OC(=O)c2ccccc2)c2cccs2)c2cc(F)c(Cl)cc21
II: CCOC(=O)CCC(=O)O/C(=C1\C(=O)N(C(N)=O)c2cc(Cl)c(F)cc21)c1cccs1
III: CC(NC(=O)OC(C)(C)C)C(=O)OCO/C(=C1/C(=O)N(C(N)=O)c2cc(Cl)c(F)cc21)c1cccs1 (stereo not drawn)
Query: Rank items: key Relative F%, increasing. Present the labels in the sequence the task asks for.
Reply: I, II, III
(I: 0, II: 3.5, III: 20)

a: NC(=O)N1C(=O)/C(=C(/OC(=O)/C=C/c2ccccc2)c2cccs2)c2cc(F)c(Cl)cc21
b: NC(=O)N1C(=O)/C(=C(\OC(=O)c2cccnc2)c2cccs2)c2cc(F)c(Cl)cc21
Query: Return label of the item with the larger Relative F%. Candidates: a , b . Write down the label of the entry you select.
Reply: a
